Data provenance is patent US20230295157A1.

biological target: UniProtKB P03951; test: Factor XIa inhibition assay (FLINT) utilizing a fluorophore-quencher pair peptide substrate; format: biochemical; conditions: 30 min preincubation, kinetic reads over 30 min, 5Fam-KLTRAETV-K5Tamra substrate 15 μM; read-out: FXIa Kin Inh IC50
Sequence (P03951 388-625): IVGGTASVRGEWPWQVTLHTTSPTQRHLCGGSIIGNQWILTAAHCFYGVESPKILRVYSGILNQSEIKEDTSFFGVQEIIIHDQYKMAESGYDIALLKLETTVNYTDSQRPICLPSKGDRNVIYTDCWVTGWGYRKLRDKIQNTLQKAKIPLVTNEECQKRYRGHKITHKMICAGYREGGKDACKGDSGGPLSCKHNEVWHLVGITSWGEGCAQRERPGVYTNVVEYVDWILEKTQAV
Sequence (P03951 19-387 partner): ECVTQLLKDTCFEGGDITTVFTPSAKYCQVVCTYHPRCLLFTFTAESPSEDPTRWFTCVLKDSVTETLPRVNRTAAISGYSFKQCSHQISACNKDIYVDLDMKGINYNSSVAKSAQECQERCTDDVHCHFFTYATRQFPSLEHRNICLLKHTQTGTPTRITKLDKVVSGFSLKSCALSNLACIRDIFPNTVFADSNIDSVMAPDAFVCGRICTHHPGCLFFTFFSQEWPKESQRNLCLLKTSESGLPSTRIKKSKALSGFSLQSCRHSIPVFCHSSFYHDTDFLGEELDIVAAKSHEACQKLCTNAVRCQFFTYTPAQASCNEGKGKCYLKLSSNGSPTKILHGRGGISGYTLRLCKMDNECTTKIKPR
measured property: IC50 (nM)

# compound, measured property, measure unit, result qualifier, measured
measured = [
    ("COCCNc1nccc(-c2cnc([C@@H]3CCC4CC(c5c(-n6cnnn6)ccc(Cl)c5F)=CC(=O)N43)[nH]2)c1F (stereo partly drawn)", "IC50", "nM", "=", 0.5),
    ("[2H][C@]12CC[C@@H](c3ncc(-c4ccc(N)nc4F)[nH]3)N1C(=O)C=C(c1c(-n3cnnn3)ccc(Cl)c1F)C2", "IC50", "nM", "=", 0.5),
    ("O=C1C=C(c2cc(Cl)ccc2-n2cnnn2)C[C@H]2CC[C@@H](c3ncc(-c4ccc(NC56CC(C5)C6)nc4F)[nH]3)N12", "IC50", "nM", "=", 17.4),
    ("O=C(NC12CC(C1)C2)c1nccc(-c2cnc([C@@H]3CC[C@@H]4CC(c5c(-n6cnnn6)ccc(Cl)c5F)=CC(=O)N43)[nH]2)c1F", "IC50", "nM", "=", 16.6),
    ("O=C1C=C(c2c(-n3cnnn3)ccc(Cl)c2F)C[C@H]2CC[C@@H](c3ncc(-c4ccnc(N5CCC5)c4F)[nH]3)N12 (single isomer, unassigned)", "IC50", "nM", "=", 2.9),
    ("Nc1ccc(-c2cnc([C@@H]3CC[C@H]4CC(c5c(-n6cnnn6)ccc(Cl)c5F)=CC(=O)N43)[nH]2)c(F)n1", "IC50", "nM", "=", 0.5),
    ("NC(=O)c1ccc(-c2cnc([C@@H]3CC[C@@H]4CC(c5c(-n6cnnn6)ccc(Cl)c5F)=CC(=O)N43)[nH]2)c(Cl)n1", "IC50", "nM", "=", 54.9),
    ("CC1(O)CCc2c(-c3cnc(C4CCC5CC(c6c(-n7cnnn7)ccc(Cl)c6F)=CC(=O)N54)[nH]3)ccnc21 (stereo not drawn)", "IC50", "nM", "=", 3.5),
    ("O=C(Nc1ccncc1-c1c[nH]c([C@@H]2CC[C@H]3CC(c4c(-n5cnnn5)ccc(Cl)c4F)=CC(=O)N32)n1)C1CC1", "IC50", "nM", "=", 1),
    ("O=C1Cc2cc(-c3cnc([C@@H]4CC[C@@H]5CC(c6c(-n7cnnn7)ccc(Cl)c6F)=CC(=O)N54)[nH]3)ccc2N1 (single isomer, unassigned)", "IC50", "nM", "=", 1.3),
    ("O=C1C=C(c2cc(Cl)ccc2-n2cnnn2)C[C@H]2CC[C@@H](c3nc(F)c(-c4ccnc(CO)c4F)[nH]3)N12", "IC50", "nM", "=", 1.3),
    ("Nc1ccc(-c2cnc([C@@H]3CCC4CC(c5c(-c6ccn[nH]6)ccc(Cl)c5F)=CC(=O)N43)[nH]2)c(F)n1 (stereo partly drawn)", "IC50", "nM", ">", 100),
    ("Cc1ccc(-n2cnnn2)c(C2=CC(=O)N3[C@H](CC[C@H]3c3ncc(-c4ccnc(CO)c4F)[nH]3)C2)c1F", "IC50", "nM", "=", 20.2),
    ("O=C(O)c1ccc(-c2cnc([C@@H]3CCC4CC(c5c(-n6cc(Cl)nn6)ccc(Cl)c5F)=CC(=O)N43)[nH]2)s1 (stereo partly drawn)", "IC50", "nM", "=", 0.4),
    ("O=C1C=C(c2c(-n3cnnn3)ccc(Cl)c2F)C[C@H]2CC[C@@H](c3nc(Cl)c(-c4ccnc([C@@H](O)C(F)(F)F)c4)[nH]3)N12", "IC50", "nM", "=", 1.7),
    ("COC(=O)Nc1cc(-c2cnc([C@@H]3CC[C@@H]4CC(c5c(-n6cnnn6)ccc(Cl)c5F)=CC(=O)N43)[nH]2)ccn1", "IC50", "nM", "=", 2.3),
    ("CCNc1nccc(-c2cnc([C@@H]3CC[C@@H]4CC(c5c(-n6cnnn6)ccc(Cl)c5F)=CC(=O)N43)[nH]2)c1F", "IC50", "nM", "=", 0.4),
    ("CCC(=O)Nc1ccccc1-c1c[nH]c([C@@H]2CC[C@@H]3CC(c4c(-n5cnnn5)ccc(Cl)c4F)=CC(=O)N32)n1 (single isomer, unassigned)", "IC50", "nM", "=", 0.7),
    ("[2H]c1c(N)nc(F)c(-c2cnc([C@@H]3CC[C@@H]4CC(c5c(-n6cnnn6)ccc(Cl)c5F)=CC(=O)N43)[nH]2)c1[2H]", "IC50", "nM", "=", 0.6),
    ("Nc1ccncc1-c1c[nH]c([C@@H]2CCC3CC(c4c(-n5cnnn5)ccc(Cl)c4F)=CC(=O)N32)n1 (stereo partly drawn)", "IC50", "nM", ">", 100),
    ("O=C1C=C(c2c(-n3cnnn3)ccc(Cl)c2F)C[C@H]2CC[C@@H](c3ncc(-c4c[nH]cc4C(F)(F)F)[nH]3)N12", "IC50", "nM", "=", 0.4),
    ("COc1ccc(NC(=O)C2CC2)c(-c2c[nH]c([C@@H]3CCC4CC(c5c(-n6cnnn6)ccc(Cl)c5F)=CC(=O)N43)n2)c1 (stereo partly drawn)", "IC50", "nM", "=", 0.9),
    ("O=C1C=C(c2c(-n3cnnn3)ccc(Cl)c2F)C[C@H]2CC[C@H](c3ncc(-c4ccnc(N5CCC[C@H](O)C5)c4F)[nH]3)N12", "IC50", "nM", "=", 17.2),
    ("NC(=O)c1cc(-c2cnc([C@@H]3CC[C@@H]4CC(c5c(-n6cnnn6)ccc(Cl)c5F)=CC(=O)N43)[nH]2)ccn1 (single isomer, unassigned)", "IC50", "nM", "=", 10.6),
]
